This collection of values is drawn from patent US11066396B2.

Recorded pIC50, one value per entry.
- Target: HDAC8 (Homo sapiens (Human), UniProt Q9BY41)
- Sequence (Q9BY41 whole entry): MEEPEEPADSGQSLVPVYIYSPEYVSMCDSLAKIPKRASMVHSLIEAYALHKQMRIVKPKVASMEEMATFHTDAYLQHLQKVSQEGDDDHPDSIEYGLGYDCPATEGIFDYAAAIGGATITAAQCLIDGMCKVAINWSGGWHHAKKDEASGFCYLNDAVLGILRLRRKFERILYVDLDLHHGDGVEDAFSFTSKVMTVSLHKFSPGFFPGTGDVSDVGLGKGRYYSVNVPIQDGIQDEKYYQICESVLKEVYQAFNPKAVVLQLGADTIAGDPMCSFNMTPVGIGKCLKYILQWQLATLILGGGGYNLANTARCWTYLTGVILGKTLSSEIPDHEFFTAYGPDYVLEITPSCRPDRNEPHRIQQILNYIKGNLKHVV
pIC50: −log10 of the molar value.
Measure name: pIC50

[[record]]
compound = "Cn1nccc1COc1cc(-c2noc(C(F)(F)F)n2)ccn1"
measure_name = "pIC50"
reported_measurement = 5.80

[[record]]
compound = "COc1cnnc(OCc2ccc(-c3noc(C(F)(F)F)n3)c(F)c2)c1"
measure_name = "pIC50"
reported_measurement = 5.62

[[record]]
compound = "O=C1CC(NCc2ccc(-c3noc(C(F)(F)F)n3)cn2)CCN1 (racemic)"
measure_name = "pIC50"
reported_measurement = 5.29

[[record]]
compound = "O=C(C1CCS(=O)(=O)CC1)N(Cc1ccc(-c2noc(C(F)(F)F)n2)nn1)c1cccc(C(F)(F)F)c1"
measure_name = "pIC50"
reported_measurement = 5.20

[[record]]
compound = "CC(Cn1cncn1)C(=O)N(Cc1ccc(-c2noc(C(F)(F)F)n2)cc1)c1cccc(C(F)(F)F)c1 (racemic)"
measure_name = "pIC50"
reported_measurement = 5.47

[[record]]
compound = "Cc1n[nH]c(CC(=O)N(Cc2ccc(-c3noc(C(F)(F)F)n3)cn2)c2cccc(F)c2)n1"
measure_name = "pIC50"
reported_measurement = 5.47

[[record]]
compound = "O=C(NCc1ccccn1)c1cccc(NCc2ccc(-c3noc(C(F)(F)F)n3)cn2)c1"
measure_name = "pIC50"
reported_measurement = 6.13

[[record]]
compound = "O=C1CC[C@@H](c2nc(-c3ccncc3)no2)N1c1ccc(-c2noc(C(F)(F)F)n2)cc1"
measure_name = "pIC50"
reported_measurement = 6.57

[[record]]
compound = "Cn1c([C@@H]2CCC(=O)N2c2ccc(-c3noc(C(F)(F)F)n3)cc2F)nc2ccccc21"
measure_name = "pIC50"
reported_measurement = 5.66

[[record]]
compound = "O=C1CCC(NCc2ccc(-c3noc(C(F)(F)F)n3)cn2)c2ccccc2N1 (racemic) [Example 381]"
measure_name = "pIC50"
reported_measurement = 5.41

[[record]]
compound = "O=C(CC1COC1)N(Cc1ccc(-c2noc(C(F)(F)F)n2)cc1)c1cccc(C(F)(F)F)c1"
measure_name = "pIC50"
reported_measurement = 5.55

[[record]]
compound = "Fc1ccccc1OCc1ccc(-c2noc(C(F)(F)F)n2)cn1"
measure_name = "pIC50"
reported_measurement = 5.46

[[record]]
compound = "CC1(C(=O)NC(Cc2ccc(-c3noc(C(F)(F)F)n3)cn2)c2cccc(C(F)(F)F)c2)COC1 (racemic)"
measure_name = "pIC50"
reported_measurement = 5.07

[[record]]
compound = "FC(F)(F)c1nc(-c2ccc(CNc3cnsc3)nc2)no1"
measure_name = "pIC50"
reported_measurement = 6.05

[[record]]
compound = "Cc1noc([C@H]2CCCCN2c2ccc(-c3noc(C(F)(F)F)n3)cn2)n1"
measure_name = "pIC50"
reported_measurement = 5.92

[[record]]
compound = "Fc1cc(COc2cc(C(F)F)ncn2)ccc1-c1noc(C(F)(F)F)n1"
measure_name = "pIC50"
reported_measurement = 5.77

[[record]]
compound = "Cc1ccc(C(=O)N(Cc2ccc(-c3noc(C(F)(F)F)n3)cn2)c2cccc(F)c2)nn1"
measure_name = "pIC50"
reported_measurement = 5.49

[[record]]
compound = "Cc1cncnc1OCc1ccc(-c2noc(C(F)(F)F)n2)c(F)c1"
measure_name = "pIC50"
reported_measurement = 5.72

[[record]]
compound = "FC(F)(F)c1nc(-c2ccc(N3CCOCC3c3cccnc3)nc2)no1 (centres unmarked) [Example 133]"
measure_name = "pIC50"
reported_measurement = 6.46

[[record]]
compound = "Cc1noc([C@@H]2CCC(=O)N2c2ccc(-c3noc(C(F)(F)F)n3)cc2F)n1"
measure_name = "pIC50"
reported_measurement = 5.28

[[record]]
compound = "O=C1NCCc2c(OCc3ccc(-c4noc(C(F)(F)F)n4)c(F)c3)cccc21"
measure_name = "pIC50"
reported_measurement = 4.35

[[record]]
compound = "O=C1COC[C@@H](c2ccccc2)N1c1ccc(-c2noc(C(F)(F)F)n2)cn1"
measure_name = "pIC50"
reported_measurement = 5.30

[[record]]
compound = "Cn1nc(C(=O)N(Cc2ccc(-c3noc(C(F)(F)F)n3)cc2)c2cccc(C(F)(F)F)c2)ccc1=O"
measure_name = "pIC50"
reported_measurement = 5.52

[[record]]
compound = "CC(C)C(=O)N1CCC(C(=O)N(Cc2ccc(-c3noc(C(F)(F)F)n3)cc2)c2cccc(C(F)(F)F)c2)CC1"
measure_name = "pIC50"
reported_measurement = 5.60

[[record]]
compound = "FC(F)(F)c1nc(-c2ccc(CNc3cncnc3)cc2)no1"
measure_name = "pIC50"
reported_measurement = 5.72

[[record]]
compound = "Fc1cc(COc2[nH]nc3c2COCC3)ccc1-c1noc(C(F)(F)F)n1"
measure_name = "pIC50"
reported_measurement = 5.64

